test system: Candida albicans; settings: Concentration 32 ug.mL-1; ASSAY_TEST Inhibition of Fungal Growth; detection method Absorption (OD530)
Description: Antifungal activity against Candida albicans ATCC 90028 (CO-ADD:FG_001); MIC in YNB media using NBS plates, by OD630
Measured potencies and affinities stand elsewhere.
Field: Inhibition. Provide a value for each of the molecules that follow.
Provide the reading as a plain figure in %.

# return recorded Inhibition for entry CCOC(=O)c1ccccc1NC(=O)Cn1nc2c3sc(N4CCCC4)nc3ncn2c1=O
9.32

# return recorded Inhibition for entry O=C(Cn1nc2n(Cc3ccc(F)cc3)c(=O)c3ccccc3n2c1=O)Nc1ccc2c(c1)OCO2
5.19

# return recorded Inhibition for entry Cc1ccc(-c2ccc3nn(Cc4ccc(F)cc4Cl)c(=O)n3n2)cc1C
-0.6

# return recorded Inhibition for entry COc1ccc2[nH]cc(C(=O)CSc3nnc4c(=O)n(-c5ccc(C)c(C)c5)ccn34)c2c1
0.06

# return recorded Inhibition for entry Cc1ccc(Oc2nccn3c(=O)n(CC(=O)NCCC4=CCCCC4)nc23)cc1
4.38

# return recorded Inhibition for entry COc1ccc(NC(=O)CSc2nnc3c(=O)n(-c4ccccc4)ccn23)cc1OC
3.46

# return recorded Inhibition for entry O=C(Cn1nc2nc(Nc3ccc(F)cc3)ccn2c1=O)Nc1cc(F)ccc1F
4.41

# return recorded Inhibition for entry N#Cc1cccc(NC(=O)CSc2nnc3c4cc(-c5ccc(F)cc5)nn4ccn23)c1
16.76

# return recorded Inhibition for entry CCc1nnc2c(S(=O)(=O)N(Cc3cccc(C)c3)c3ccc(C(C)C)cc3)cccn12
4.99

----------
Field: Inhibition. Provide a value for each of the compounds that follow.
test system: Cryptococcus neoformans; settings: Concentration 32 ug.mL-1; ASSAY_TEST Inhibition of Fungal Growth; detection method Resazurin; Absorption (OD600-OD570); plate type 384well; NBS; CORNING #3640
Description: Antifungal activity against Cryptococcus neoformans H99 ATCC 208821 (CO-ADD:FG_002); MIC in YNB media using NBS plates, by Resazurin OD(600-570)
Potency and affinity values are given separately.
Provide the reading as a plain figure in %.

# return recorded Inhibition for entry CCc1cccc(NC(=O)Cn2c(=O)c3nnc(C(C)C)n3c3ccccc32)c1
-21.01

# return recorded Inhibition for entry Cc1cc(C)cc(NC(=O)Cn2nc3c(Sc4cccc(C)c4)nc4ccccc4n3c2=O)c1
-15.02

# return recorded Inhibition for entry COC(=O)c1ccc(NC(=O)Cn2nc3c(Oc4ccccc4C)nccn3c2=O)cc1
-4.07

# return recorded Inhibition for entry CSc1cccc(NC(=O)Cn2nc3c(Sc4ccc(C)cc4C)nccn3c2=O)c1
-22

# return recorded Inhibition for entry O=C(CSc1nnc2c(=O)n(-c3cccc(F)c3)ccn12)N1CCN(c2ccc(F)cc2)CC1
-3.61

# return recorded Inhibition for entry COc1ccc(-c2cc3c4nn(CC(=O)Nc5cc(OC)cc(OC)c5)c(=O)n4ccn3n2)cc1
-18.18

# return recorded Inhibition for entry Cc1ccc(Oc2nccn3c(=O)n(CC(=O)NCc4ccccc4Cl)nc23)cc1
-7.33

# return recorded Inhibition for entry CCCCNC(=O)Cn1nc2n(Cc3ccco3)c(=O)c3sccc3n2c1=O
-11.54

# return recorded Inhibition for entry O=C(CSc1nnc2ccc(C(=O)Nc3cccc(F)c3)cn12)Nc1ccc(F)c(F)c1
-3.04

# return recorded Inhibition for entry CCCc1nnc2c(=O)n(CC(=O)Nc3ccc(C#N)cc3)c3ccccc3n12
-7.04

# return recorded Inhibition for entry COc1ccccc1N1CCN(C(=O)Cn2nc3c(Oc4ccc(C)cc4)nccn3c2=O)CC1
-10.45

# return recorded Inhibition for entry N#CCSc1nnc2c(=O)n(-c3ccc(Br)cc3)ccn12
-7.07

# return recorded Inhibition for entry O=C(CSc1nnc2c(=O)n(-c3ccccc3)ccn12)c1c[nH]c2ccccc12
-9.19

# return recorded Inhibition for entry CCOc1ccc(-n2ccn3c(SCC(=O)c4cc(C)c(C)cc4C)nnc3c2=O)cc1
-7.59

# return recorded Inhibition for entry O=C(Cn1nc2ccc(SC3CCCCC3)nn2c1=O)Nc1ccc2c(c1)OCO2
-3.38

# return recorded Inhibition for entry O=C(Cn1nc2c(Sc3cccc(F)c3)nccn2c1=O)Nc1ccc(F)c(Cl)c1
-8.73

# return recorded Inhibition for entry CCOC(=O)C1CCCN(C(=O)Cn2nc3n(CC(C)C)c(=O)c4sccc4n3c2=O)C1 (stereo not given)
-14.07

# return recorded Inhibition for entry COc1cccc(Oc2nccn3c(=O)n(CC(=O)Nc4ccc(OC)c(OC)c4)nc23)c1
-6.14

# return recorded Inhibition for entry Cc1cccc(NC(=O)Cn2nc3ccc(SC(C)(C)C)nn3c2=O)c1
-8.45

# return recorded Inhibition for entry Cc1cccc(CN(c2cccc(F)c2)S(=O)(=O)c2ccc3nncn3c2)c1
-4.78

----------
tested on: Candida albicans; conditions: Concentration 32 ug.mL-1; ASSAY_TEST Inhibition of Fungal Growth; detection method Absorption (OD530)
Entries with a potency or affinity are not part of this list.
measured-property: Inhibition
Output should be the measured figure followed by the unit it is expressed in.

GET Inhibition where system = Candida albicans and item = CCOC(=O)c1ccc(NC(=O)Cn2nc3c(SC4CCCCC4)nccn3c2=O)cc1
-1.98%

GET Inhibition where system = Candida albicans and item = Cc1ccc(-c2ccc3nn(Cc4cccc(Br)c4)c(=O)n3n2)cc1
-0.24%

GET Inhibition where system = Candida albicans and item = O=c1c2sccc2n2c(=O)n(Cc3ccc(Br)cc3)nc2n1CCc1ccccc1
27.87%

GET Inhibition where system = Candida albicans and item = CCN(C(=O)Cn1nc2nc(Nc3ccc(F)cc3)ccn2c1=O)c1ccccc1
1.18%

GET Inhibition where system = Candida albicans and item = Cc1cc2nn(CC(=O)N3CCCc4ccccc43)c(=O)n2c(Nc2ccc(F)cc2)n1
1.07%

GET Inhibition where system = Candida albicans and item = COc1ccc(-c2cc3c4nnc(SCC(=O)Nc5ccccc5F)n4ccn3n2)cc1
-0.08%

GET Inhibition where system = Candida albicans and item = CCOc1ccc(NC(=O)Cn2nc3c(Sc4cccc(F)c4)nccn3c2=O)cc1
0.06%

GET Inhibition where system = Candida albicans and item = Cc1ccc(-c2cc3c4nn(CC(=O)Nc5cccc(C)c5C)c(=O)n4ccn3n2)cc1C
0.02%

GET Inhibition where system = Candida albicans and item = COc1ccc(C)cc1NC(=O)Cn1nc2ccc(SC(C)(C)C)nn2c1=O
3.1%

GET Inhibition where system = Candida albicans and item = O=C(Cn1nc2c3cc(-c4ccc(F)cc4)nn3ccn2c1=O)Nc1ccccc1
9.56%

GET Inhibition where system = Candida albicans and item = C=Cc1ccc(CN(c2ccc(CC)cc2)S(=O)(=O)c2cccn3c(C)nnc23)cc1
4.32%

GET Inhibition where system = Candida albicans and item = CCOc1ccccc1NC(=O)Cn1nc2c3cc(-c4ccc(OC)cc4)nn3ccn2c1=O
0.88%

GET Inhibition where system = Candida albicans and item = Cc1ccc(Sc2nccn3c(=O)n(CC(=O)Nc4ccccc4Br)nc23)c(C)c1
1.01%

GET Inhibition where system = Candida albicans and item = COc1ccc(NC(=O)Cn2nc3c4cc(-c5ccc(C)cc5)nn4ccn3c2=O)cc1Cl
9.96%

GET Inhibition where system = Candida albicans and item = O=S(=O)(c1ccc2nncn2c1)N(Cc1cccc(F)c1)c1cc(F)cc(F)c1
4.13%

GET Inhibition where system = Candida albicans and item = CCN(CCCNC(=O)CCc1nnc2ccc(-c3ccc(C)c(C)c3)nn12)c1ccccc1
13.02%

GET Inhibition where system = Candida albicans and item = Cc1ccc(NC(=O)Cn2nc3c(SC4CCCCC4)nccn3c2=O)c(Br)c1
0.73%

GET Inhibition where system = Candida albicans and item = O=C(CCc1nnc2c(N3CCCCC3)nc3ccccc3n12)NCc1ccc2c(c1)OCO2
10.16%

GET Inhibition where system = Candida albicans and item = CCCCOc1ccc(-c2cc3c4nnc(SCC(=O)Nc5ccccc5F)n4ccn3n2)cc1
7.26%

GET Inhibition where system = Candida albicans and item = COc1ccc2[nH]cc(C(=O)CSc3nnc4c(=O)n(-c5ccc(F)cc5)ccn34)c2c1
3.24%

----------
system: Candida albicans; details: Concentration 32 ug.mL-1; ASSAY_TEST Inhibition of Fungal Growth; detection method Absorption (OD530)
Potency and affinity values are given separately.
measured-property: Inhibition (%)
Provide the reading as a plain figure in %.

# return recorded Inhibition for entry O=C(CSc1nc2ccccc2n2cnnc12)Nc1ccc2c(c1)OCCO2
2.01

# return recorded Inhibition for entry COC(=O)c1ccccc1NC(=O)Cn1nc2c3sc(N4CCCC4)nc3ncn2c1=O
3.62

# return recorded Inhibition for entry CCc1ccccc1NC(=O)Cn1nc2n(C)c(=O)c3c(c(-c4ccccc4)cn3C)n2c1=O
6.61

# return recorded Inhibition for entry Cc1cc2nn(CC(=O)NCc3ccco3)c(=O)n2c(Nc2ccc(C)c(F)c2)n1
7.51

# return recorded Inhibition for entry CCc1nnc2c(SCC(=O)Nc3cccc(Br)c3)nc3ccccc3n12
4.07

# return recorded Inhibition for entry COc1ccc(OC)c(NC(=O)Cn2nc3c(Sc4ccccc4)nc4ccccc4n3c2=O)c1
2.83

# return recorded Inhibition for entry O=C(Cn1nc2c(N3CCOCC3)nccn2c1=O)Nc1ccc2c(c1)OCO2
1.5

# return recorded Inhibition for entry CC(C)c1nnc2c(SCC(=O)Nc3ccc(C#N)cc3)nc3ccccc3n12
0.55

# return recorded Inhibition for entry O=c1c2nn(Cc3ccccc3Cl)c(=O)n2ccn1-c1ccccc1
1.76

# return recorded Inhibition for entry O=C(Cn1nc2ccc(Sc3cccc(F)c3)nn2c1=O)Nc1cccc(Cl)c1
11.97

# return recorded Inhibition for entry O=C(Cn1nc2c(Oc3ccccc3)nc3ccccc3n2c1=O)Nc1ccc2c(c1)OCO2
16.43

# return recorded Inhibition for entry Cc1ccccc1NC(=O)Cn1nc2ccc(SC3CCCCC3)nn2c1=O
-1.85

# return recorded Inhibition for entry Cc1ccc(C(=O)C(C)Sc2nnc3c(=O)n(-c4ccc(F)c(F)c4)ccn23)cc1C (stereo not given)
2.5

# return recorded Inhibition for entry Cc1ccc(NC(=O)Cn2nc3ccc(SCc4ccc(Cl)cc4)nn3c2=O)cc1
7.44

# return recorded Inhibition for entry Cc1nnc2c(S(=O)(=O)N(Cc3ccccc3F)c3cc(F)cc(F)c3)cccn12
0.25

# return recorded Inhibition for entry CCOc1ccc(NC(=O)Cn2nc3c(SCc4ccc(Cl)cc4)nccn3c2=O)cc1
17.72

# return recorded Inhibition for entry Cc1nnc2c(S(=O)(=O)N(Cc3ccccc3F)c3ccc(C(C)C)cc3)cccn12
0.44

# return recorded Inhibition for entry O=C(Cn1nc2c(N3CCSCC3)nc3ccccc3n2c1=O)NCc1ccccc1
0.65

# return recorded Inhibition for entry CCc1ccc(N(Cc2ccccc2F)S(=O)(=O)c2cccn3c(C)nnc23)cc1
0.88

# return recorded Inhibition for entry CCOc1ccc(-n2ccn3c(SCC(=O)c4cc(C)c(C)cc4C)nnc3c2=O)cc1
2.99

# return recorded Inhibition for entry O=C(Cn1nc2c(Sc3cccc(F)c3)nccn2c1=O)Nc1cccc(Br)c1
-0.26

# return recorded Inhibition for entry Cc1ccc(S(=O)(=O)Nc2ccc3nnc(-c4ccccc4)n3n2)cc1C
0.52

# return recorded Inhibition for entry COc1cccc(CN(c2cc(F)cc(F)c2)S(=O)(=O)c2ccc3nnc(C)n3c2)c1
1.34

# return recorded Inhibition for entry Cc1cccc(NC(=O)c2ccc3nnc(SCC(=O)Nc4ccc(Br)cc4)n3c2)c1
7.81

# return recorded Inhibition for entry CCc1nnc2ccc(S(=O)(=O)N(Cc3ccc(OC)c(F)c3)c3ccccc3)cn12
-0.62

# return recorded Inhibition for entry CCCc1ccc(S(=O)(=O)Nc2ccc3nncn3n2)cc1
1.65

# return recorded Inhibition for entry CCOc1ccc(NC(=O)Cn2nc3ccc(SCc4ccc(Cl)cc4)nn3c2=O)cc1
15.3

# return recorded Inhibition for entry Cc1c(Cl)cccc1-n1ccn2c(SCC(=O)c3c[nH]c4ccccc34)nnc2c1=O
2.26

# return recorded Inhibition for entry COC(=O)c1ccc(NC(=O)CSc2nnc3c4cc(-c5ccc(OC)cc5)nn4ccn23)cc1
0.37

# return recorded Inhibition for entry COc1ccc(OC)c(NC(=O)Cn2nc3c(SCc4ccc(Cl)cc4)nccn3c2=O)c1
23.62

# return recorded Inhibition for entry CCOc1ccccc1NC(=O)Cn1c(=O)c2nnc(C(C)C)n2c2ccccc21
1.06

# return recorded Inhibition for entry COc1cccc(-n2ccn3c(SCC(=O)Nc4ccc(Cl)cc4)nnc3c2=O)c1
2.88

# return recorded Inhibition for entry O=C(Cn1nc2c(SC3CCCCC3)nccn2c1=O)N1CCN(c2ccc(F)cc2)CC1
0.3

# return recorded Inhibition for entry O=C(Cn1nc2c(Sc3ccccc3)nccn2c1=O)Nc1ccc(Br)cc1F
5.59

# return recorded Inhibition for entry Cc1ccc(-c2ccc3nn(Cc4ccc(N5CCCC5=O)cc4)c(=O)n3n2)cc1
1.53

# return recorded Inhibition for entry CCc1nnc2ccc(S(=O)(=O)N(Cc3ccccc3F)c3ccc(OC)cc3)cn12
3.86

# return recorded Inhibition for entry COc1ccc(NC(=O)c2ccc3nn(CC(=O)Nc4ccc(C(F)(F)F)cc4)c(=O)n3c2)cc1
4.22

# return recorded Inhibition for entry CCc1ccc(N(Cc2ccc(F)cc2)S(=O)(=O)c2cccn3c(CC)nnc23)cc1
33.96

# return recorded Inhibition for entry COc1ccc(-c2cc3c4nn(CC(=O)Nc5c(C)cc(C)cc5C)c(=O)n4ccn3n2)cc1
-1.73

# return recorded Inhibition for entry COc1ccc(NC(=O)Cn2nc3ccc(-c4ccc(Cl)cc4)nn3c2=O)cc1OC
-2.47
